These measurements were taken from patent EP4471049A1.

Target: T1, human IL-23R endogenously expressed on DB cells (human, UniProt Q5VWK5 24-629)
T1 sequence (looked up): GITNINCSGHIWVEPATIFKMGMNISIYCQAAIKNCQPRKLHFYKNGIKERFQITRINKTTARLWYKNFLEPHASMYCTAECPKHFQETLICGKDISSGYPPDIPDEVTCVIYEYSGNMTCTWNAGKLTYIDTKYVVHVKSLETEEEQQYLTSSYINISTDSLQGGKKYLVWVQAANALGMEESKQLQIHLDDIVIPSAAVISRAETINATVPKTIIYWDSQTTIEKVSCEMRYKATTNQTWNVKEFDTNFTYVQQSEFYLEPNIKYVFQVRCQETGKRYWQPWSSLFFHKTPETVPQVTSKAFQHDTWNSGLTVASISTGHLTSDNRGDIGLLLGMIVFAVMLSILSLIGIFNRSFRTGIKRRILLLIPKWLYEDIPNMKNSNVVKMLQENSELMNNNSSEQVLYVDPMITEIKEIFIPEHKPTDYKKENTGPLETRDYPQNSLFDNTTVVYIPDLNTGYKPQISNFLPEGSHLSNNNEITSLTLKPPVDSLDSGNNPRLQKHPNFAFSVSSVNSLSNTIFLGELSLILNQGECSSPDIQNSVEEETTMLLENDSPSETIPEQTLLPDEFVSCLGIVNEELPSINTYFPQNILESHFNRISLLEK
Experiment: cell-based or functional assay
*1 amine or outer side, *2 acyl side, *3 side chain or, on linkers, in order; H or OH if unused. Bridges are numbered along the chain shown (N, C = ends). Where no end group is shown, it is not given here. [ ]: non-standard residue; d: D form. The star is where a group is joined. 4‑Aminomethyl‑phenylacetyl = 4-aminomethyl-phenylacetyl unit, its amine closes the lactam, O=C(Cc1ccc(CN[*:1])cc1)[*:2]; αMeAla(3-pyridyl) = C[C@](N)(Cc1cccnc1)C(=O)O; dGly‑CF3 = O=C([C@H](N[*:1])C(F)(F)F)[*:2]; NH(4-(3-pyridyl)butyl) = c1cncc(CCCCN*)c1; 2Nal = N[C@@H](Cc1ccc2ccccc2c1)C(=O)O; AEF = NCCOc1ccc(C[C@H](N)C(=O)O)cc1; NMe3Pal = CN[C@@H](Cc1cccnc1)C(=O)O; 3Pal = N[C@@H](Cc1cccnc1)C(=O)O; αMeL = CC(C)C[C@](C)(N)C(=O)O; β3hL = CC(C)C[C@H](N)CC(=O)O; 3Amb = NCc1cccc(C(=O)O)c1; Dab = NCC[C@H](N)C(=O)O
Listed binders paired with reported hIL-23 (pSTAT3) antagonist % inhibition
recorded.endpoint: hIL-23 (pSTAT3) antagonist % inhibition (%)

1) [4‑Aminomethyl‑phenylacetyl]SCWQC[AEF][2Nal][αMeL]ER-NH2 (lactam N-10; bridge 3-6; not fully specified (bridges); printed as [4-Aminomethyl-phenylacetyl](1c)*SC(2a)WQC(2a)[Y(2-aminoethoxy)][2-Nal][2-Me-Leu]E(1c)R-[NH2], Y = Y(2-aminoethoxy)) [Ref 52] : 103
2) [4‑Aminomethyl‑phenylacetyl]SEWQ[Dab][AEF][2Nal][αMeL]E[Dab][H(Me)]-NH2 (lactam N-10, 3-6) [Compound 14] : 99
3) [4‑Aminomethyl‑phenylacetyl]SEWQ[Dab][AEF][2Nal][αMeL]E[Dab][αMeAla(3-pyridyl)]-NH2 (lactam N-10, 3-6; SMILES CC(C)C[C@]1(C)NC(=O)[C@H](Cc2ccc3ccccc3c2)NC(=O)[C@H](Cc2ccc(OCCN)cc2)NC(=O)[C@@H]2CCNC(=O)CC[C@H](NC(=O)[C@H](CO)NC(=O)Cc3ccc(cc3)CNC(=O)CC[C@@H](C(=O)N[C@@H](CCN)C(=O)N[C@@](C)(Cc3cccnc3)C(N)=O)NC1=O)C(=O)N[C@@H](Cc1c[nH]c3ccccc13)C(=O)N[C@@H](CCC(N)=O)C(=O)N2) [Compound 3] : 98
4) [4‑Aminomethyl‑phenylacetyl]SEWQ[Dab][AEF][2Nal][αMeL]E[dGly‑CF3][3Pal]-NH2 (lactam (positions not given here); lactam 3-6; not fully specified (bridges)) [Compound 16] : 97
5) Ac-KTCWQC[AEF][2Nal][αMeL]E[Dab][3Pal]-NH2 (lactam 1-10; bridge 3-6; not fully specified (bridges); printed as [Ac]-K(1c)TC(2a)WQC(2a)[Y(2-aminoethoxy)][2-Nal][2-Me-Leu]E(1c)[Dab][3-(3-Pyridyl)-Ala]-[NH2]) [Ref 155] : 100
6) [3Amb]SCWQC[AEF][2Nal][αMeL]E[dR]-NH2 (lactam N-10; bridge 3-6; not fully specified (bridges); printed as [(3-Aminomethyl)benzoyl](1c)*SC(2a)WQC(2a)[Y(2-aminoethoxy)][2-Nal][2-Me-Leu]E(1c)[{d}R]-[NH2], Y = Y(2-aminoethoxy), R = D-Arg) [Ref 41] : 99
7) [4‑Aminomethyl‑phenylacetyl]SEWQ[Dab][AEF][2Nal][αMeL]E[Dab][3Pal][β3hL]-NH2 (lactam N-10, 3-6; SMILES CC(C)C[C@@H](CC(N)=O)NC(=O)[C@H](Cc1cccnc1)NC(=O)[C@H](CCN)NC(=O)[C@@H]1CCC(=O)NCc2ccc(cc2)CC(=O)N[C@@H](CO)C(=O)N[C@H]2CCC(=O)NCC[C@H](NC(=O)[C@H](CCC(N)=O)NC(=O)[C@H](Cc3c[nH]c4ccccc34)NC2=O)C(=O)N[C@@H](Cc2ccc(OCCN)cc2)C(=O)N[C@@H](Cc2ccc3ccccc3c2)C(=O)N[C@@](C)(CC(C)C)C(=O)N1) [Compound 11] : 98
8) [4‑Aminomethyl‑phenylacetyl]SEWQ[Dab][AEF][2Nal][αMeL]E[Dab][dH]-NH2 (lactam N-10, 3-6; SMILES CC(C)C[C@]1(C)NC(=O)[C@H](Cc2ccc3ccccc3c2)NC(=O)[C@H](Cc2ccc(OCCN)cc2)NC(=O)[C@@H]2CCNC(=O)CC[C@H](NC(=O)[C@H](CO)NC(=O)Cc3ccc(cc3)CNC(=O)CC[C@@H](C(=O)N[C@@H](CCN)C(=O)N[C@H](Cc3c[nH]cn3)C(N)=O)NC1=O)C(=O)N[C@@H](Cc1c[nH]c3ccccc13)C(=O)N[C@@H](CCC(N)=O)C(=O)N2) [Compound 13] : 99
9) [4‑Aminomethyl‑phenylacetyl]SEWQ[Dab][AEF][2Nal][αMeL]E[Dab]-{NH(4-(3-pyridyl)butyl)} (lactam N-10, 3-6) [Compound 6] : 99
10) [4‑Aminomethyl‑phenylacetyl]SEWQ[Dab][AEF][2Nal][αMeL]E[Dab][NMe3Pal]-NH2 (lactam N-10, 3-6) [Compound 4] : 100
11) H-ECWLCYYRNCNCM-NH2 (linker 5-10, 2-12 via 1,3‑dithio‑propan‑2‑one, compound from Heinis et al., 2020, synthesised for comparison) [I4 (isomer 3)] : 23
